# EC50 values compiled below
# target desc: hMelB (Homo sapiens)
# Sequence (P49286 whole entry): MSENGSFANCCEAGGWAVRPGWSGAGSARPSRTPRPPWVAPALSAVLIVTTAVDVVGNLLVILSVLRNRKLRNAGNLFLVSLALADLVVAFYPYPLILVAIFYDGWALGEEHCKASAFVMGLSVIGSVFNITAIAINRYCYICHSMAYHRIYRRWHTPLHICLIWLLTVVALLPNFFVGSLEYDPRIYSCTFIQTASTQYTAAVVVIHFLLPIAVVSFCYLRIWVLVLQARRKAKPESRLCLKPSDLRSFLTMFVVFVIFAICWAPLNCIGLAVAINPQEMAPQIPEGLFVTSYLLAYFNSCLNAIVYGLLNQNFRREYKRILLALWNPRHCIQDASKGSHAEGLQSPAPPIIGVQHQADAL
# procedure details: GFP-aequorin calcium luminescence, HEK293-G5A
observed property: EC50 (µM)

INSERT INTO assay_data (smiles_structure, unit_annotation, observed_result) VALUES
  ('CC(=O)NCCc1c[nH]c2ccc(O)cc12', 'µM', 0.121),
  ('CC(=O)NCCc1c[nH]c2ccccc12', 'µM', 0.0468),
  ('CC(=O)NCCc1ccc(O)cc1', 'µM', 1.4),
  ('NCCc1c[nH]c2ccccc12', 'µM', 87.2);
